Source listed as PubChem BioAssay AID179.

# System: CEM cells HIV-1 protection, formazan growth assay
# assay_overview: NCI AIDS Antiviral Assay;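 active means compounds giving half or more protection of infected cells from virus-caused growth loss, again on retest; inactive means the rest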
Please state which outcome applies, choosing from yes (1) = active, no (0) = inactive

What classification did C=C1[C@@H](OC(C)=O)C[C@@H]2C[C@]3(C)C(OC(C)=O)CC(C)(C)[C@@H]3C12O (some centres undefined) end up with in this test?
no (0)

What classification did "C=C1c2nc3ccccc3n2C=C(c2ccccc2)N1c1ccc(Cl)cc1" end up with in this test?
no (0)

What classification did "C[C@H]1OCN(C(=O)c2cc3ccccc3cc2SSc2cc3ccccc3cc2C(=O)N2CO[C@H](C)[C@H]2C(=O)O)[C@@H]1C(=O)O" end up with in this test?
no (0)

What classification did "Cc1cc(Cl)c(O)c(-c2cc(-c3ccc([N+](=O)[O-])cc3)c3c(N)[nH]c(=O)nc3n2)c1" end up with in this test?
no (0)

What classification did "CCOC(=O)c1cn2c(nc1=O)N[C@H]1CCCC[C@@H]12" end up with in this test?
no (0)

What classification did COc1cccc2c1OC(c1cccc3ccccc13)C([N+](=O)[O-])=C2 (centres undefined) end up with in this test?
no (0)

What classification did "O=c1oc2ccccc2c2nc3cc(Cl)ccc3cc12" end up with in this test?
no (0)

What classification did "O=C(NCCCCl)c1c(O)c2ccccc2[nH]c1=O" end up with in this test?
no (0)

What classification did O=C1CC(C(CC(=O)c2ccccc2)c2ccccc2)C(=O)c2ccccc2N1 (centres undefined) end up with in this test?
no (0)

What classification did COC1C(O)CC(OC2CC(Oc3cc4cc5c(c(O)c4c(O)c3C)C(=O)[C@@H](OC3CC(OC4CC(OC6CC(C)(O)C(OC(C)=O)C(C)O6)C(O)C(C)O4)C(O)C(C)O3)[C@H]([C@H](OC)C(=O)[C@@H](O)[C@@H](C)O)C5)OC(C)C2OC(C)=O)OC1C (some centres undefined) end up with in this test?
no (0)

What classification did CS(=O)CC(=O)c1ccccn1 (centres undefined) end up with in this test?
no (0)

What classification did "CC(=O)C(=Cc1ccc([N+](=O)[O-])cc1)C(C)=O" end up with in this test?
no (0)

What classification did "Cc1cc2c(cc1C)C(=O)C(=O)N2" end up with in this test?
no (0)

What classification did "CNc1ccc2ncccc2c1[N+](=O)[O-]" end up with in this test?
no (0)

What classification did "CN1CCN(c2n[nH]c(=O)c3c2nnn3C2CCCCC2)CC1" end up with in this test?
no (0)

What classification did "CC(=O)c1cccc(NC(=O)Nc2ncccc2C)c1" end up with in this test?
no (0)

What classification did "On1ccccc1=S" end up with in this test?
no (0)

What classification did "Oc1ccccc1C=Nc1ccccc1S.[Cu+2]" end up with in this test?
no (0)

What classification did "Cc1ccc(-n2c(=S)n(-c3ccccc3C)c3nc4ccccc4nc2/c3=N\Nc2ccc(Cl)cc2)cc1" end up with in this test?
no (0)

What classification did "CCOC(=O)/C=C/c1nc(C#N)c(N)o1" end up with in this test?
no (0)

What classification did OC1(c2ccc(-c3ccccc3)cc2)c2ccccc2C2=NCCN21 (centres undefined) end up with in this test?
no (0)

What classification did "CN(C(=O)C1=CCC2(CC1)OCCO2)c1ccccc1I" end up with in this test?
no (0)

What classification did COC(=O)/C(=C/CC(N=C(c1ccccc1)c1ccccc1)C(=O)OC)N=C(c1ccccc1)c1ccccc1 (centres undefined) end up with in this test?
no (0)

What classification did "CCC(=O)N(O)C(C)(C)C" end up with in this test?
no (0)

What classification did "COc1cccc(CCn2c(N)c(-c3ccccc3)c3ccc([N+](=O)[O-])cc3c2=O)c1" end up with in this test?
no (0)

What classification did "Cc1c(C(=O)O)n2c(=S)[nH]nc2c2ccccc12" end up with in this test?
no (0)

What classification did "Cc1noc(C(F)(F)Sc2ncccn2)n1" end up with in this test?
yes (1)

What classification did "Cc1csc2nc3c(cnn3C)c(=S)n12" end up with in this test?
no (0)

What classification did "O=C(Nc1nc(C23CC4CC(CC(C4)C2)C3)cs1)c1cc2cc(Br)cc(Br)c2oc1=O" end up with in this test?
no (0)

What classification did "CC(C)[C@@H]1CC[C@]2(COC(=O)CC3(CC(=O)O)CCCC3)CC[C@]3(C)[C@H](CC[C@@H]4[C@@]5(C)CC[C@H](OC(=O)CC6(CC(=O)O)CCCC6)C(C)(C)[C@@H]5CC[C@]43C)[C@@H]12" end up with in this test?
no (0)

What classification did "O=C1/C(=C\c2c(-c3ccccc3)nn(-c3ccccc3)c2O)C(c2ccccc2)=NN1c1ccccc1" end up with in this test?
no (0)

What classification did CCN(CC)CCN1CCc2c([nH]c3ccccc23)C1c1cccnc1 (centres undefined) end up with in this test?
no (0)

What classification did "COc1c(C)c2c(c(O)c1C/C=C(\C)CCC(=O)O)C(=O)OC2" end up with in this test?
no (0)

What classification did "COc1ccc2c(O)c(S(=O)(=O)c3ccc(C)cc3)c(=O)oc2c1" end up with in this test?
no (0)

What classification did "N#CCCN(CCC#N)Cc1c(O)c(O)c(CN(CCC#N)CCC#N)c2ccccc12" end up with in this test?
yes (1)

What classification did COC(=O)C(=O)C(C(=O)C(=O)Nc1ccc([N+](=O)[O-])cc1C#N)c1nc2ccc([N+](=O)[O-])cc2[nH]c1=O (centres undefined) end up with in this test?
no (0)

What classification did CCCCCCCCCCCCCCCCCCSCC(C)(COP(=O)(O)OP(=O)(O)OCC1OC(n2cc(C)c(=O)[nH]c2=O)CC1N=[N+]=[N-])OC(=O)CCCCCCCCCCCCCCC (centres undefined) end up with in this test?
yes (1)

What classification did C=CC1=C(C)C(/C=c2\[nH]/c(=C/c3[nH]c(CC4NC(=O)C(C)/C4=C\C)c(C)c3CCC(=O)O)c(CC(=O)O)c2C)=NC1=O (centres undefined) end up with in this test?
no (0)

What classification did "CCN(CC)C(=O)O/N=C(/C)c1ccccc1" end up with in this test?
no (0)

###

Give measured EC50 for each item. Keep answers brief.
# Test system: CEM cells HIV-1 protection, formazan growth assay
# assay_overview: NCI AIDS Antiviral Assay
Where a SMILES comes first, the peptide text is derived from it. Bridges are numbered along the chain shown (N, C = ends). Roman numbers before positions name the chains, in order. The star is where a group is joined. Cbz = O=C(OCc1ccccc1)*

Given COc1ccc(C2OCC3OC(n4cc(C)c(=O)[nH]c4=O)CC3N2O)cc1 (stereo not drawn) , state its recorded EC50.
> 200 µM

Given "O=C(OCC(Cl)(Cl)Cl)OCC(Cl)(Cl)Cl" , state its recorded EC50.
> 200 µM

Given "CC(=O)Nc1ccc(Sc2nnc(NC(C)=O)s2)cc1" , state its recorded EC50.
> 32.4 µM

Given "COc1ccc(/C=C/C(=O)c2ccccc2)cc1OC" , state its recorded EC50.
> 97.7 µM

Given O=C1CSC(c2ccc(Cl)cc2)N1c1ccc(-c2ccc(-n3c(-c4ccccc4)nc4ccccc4c3=O)cc2)cc1 (stereo not drawn) , state its recorded EC50.
> 200 µM

Given CC(C)CC(N)C(=O)NC(CC(=O)O)C(=O)NC(CCCCN)C(=O)NC(C)C(=O)NC(CO)C(=O)NC(Cc1ccc(O)cc1)C(=O)NC(CO)C(=O)NC(C(=O)NC(CC(N)=O)C(=O)O)C(C)O (stereo not drawn) (H-LDKASYSTN-OH; configuration not given here) , state its recorded EC50.
> 50.1 µM

Given "CC1=NC(=Cc2ccc(O)cc2)C(=O)N1n1c(-c2ccccc2)nc2ccccc2c1=O" , state its recorded EC50.
> 200 µM

Given C=CCC1(O)C(CO[Si](C)(C)C(C)(C)C)OC(n2ccc(=O)[nH]c2=O)C1O[Si](C)(C)C(C)(C)C (stereo not drawn) , state its recorded EC50.
> 200 µM

Given Cc1nn(C(=O)c2ccc(Cl)cc2)c2c1C(c1ccc([N+](=O)[O-])cc1)SC(N)=N2 (stereo not drawn) , state its recorded EC50.
> 200 µM

Given COc1ccc(C(=O)C(c2ccc(OC)cc2)C2C(=O)Oc3ccccc32)cc1 (stereo not drawn) , state its recorded EC50.
> 34.7 µM

Given CC(=O)Nc1ccc(/C=C2/SC(=S)N(/C=C(\c3ccccc3)S(=O)Cc3ccccc3)C2=O)cc1 (stereo not drawn) , state its recorded EC50.
> 200 µM

Given "C#CCNCC(=O)O" , state its recorded EC50.
46.8 µM

Given CCOC(=O)C(Cc1ccc(O)cc1)NC(=O)C(CSSCC(NC(=O)OCc1ccccc1)C(=O)NC(Cc1ccc(O)cc1)C(=O)OCC)NC(=O)OCc1ccccc1 (stereo not drawn) (I: Cbz-Cys-Tyr-OEt / II: Cbz-Cys-Tyr-OEt; disulfide I:1-II:1; configuration not given here) , state its recorded EC50.
> 100 µM

Given COCC(O)Cn1ccnc1[N+](=O)[O-] (stereo not drawn) , state its recorded EC50.
> 1230 µM

Given "CC(C)=C/C=C1/CS(=O)(=O)C=C1C" , state its recorded EC50.
> 200 µM

Given C/C(=N\NS(=O)(=O)c1ccc(C)cc1)C(CN1CCCCC1)C(c1ccccc1)c1c(O)c2ccccc2oc1=O (stereo not drawn) , state its recorded EC50.
> 58.9 µM

Given "Sc1nc2ccccc2s1.Sc1nc2ccccc2s1.Sc1nc2ccccc2s1.Sc1nc2ccccc2s1.[Cl][Rh][Cl]" , state its recorded EC50.
> 151 µM

Given COC(=O)C1(O)CC(=O)CCC1c1ccccc1 (stereo not drawn) , state its recorded EC50.
> 355 µM
